tested on: Fibroblast; assay: Incucyte cell viability with human fibroblast; type: toxicity, cell-based; details: 18 h, 10 µM, compound concentration 10 uM, replicate number 1, timepoint 18 hours; also: filed as whole numbers so only -1 and 0 and 1 occur
Known Growth Rate of a selection of compounds
Write the number on its own, no unit after it.

### Prompt Checklist item: Growth Rate tested on Fibroblast, entry `CC(C)c1ccc(CC(=O)N2CCC[C@@H](c3cccc(OC(C)(C)C(=O)O)c3)C2)cc1` , value?
### Response 0

* * *

Known Population Hoechst High Intensity Objects (%) of a selection of compounds
system: U2OS; assay: Multiplex assay against U2OS; format: toxicity, cell-based; details: human, 12 h, 1 µM, compound concentration 1 uM, replicate 2
Note: unit % is implicit; provide only the numeric part.

### Prompt State the recorded Population Hoechst High Intensity Objects (%) for this entry: `Cc1c(Nc2ccc(S(=O)(=O)N3CCN(C)CC3)cc2F)nc2ccc(-c3cnn(C4CC4)c3)cn2c1=O`
### Response 8

* * *

Known Population Mitochondria Different-Phenotype (%) of a selection of compounds
system: U2OS; assay: Multiplex assay against U2OS; format: toxicity, cell-based; details: human, 48 h, 10 µM, compound concentration 10 uM, replicate 2
Note: unit % is implicit; provide only the numeric part.

# annotated cases, reported Population Mitochondria Different-Phenotype (%) shown
• CCCCCNC(=N)N/N=C/c1c[nH]c2ccc(OC)cc12.O=C(O)/C=C\C(=O)O [TEGASEROD MALEATE] = 90
• c1ccc(-c2oc3ncnc(NC[C@@H]4CCCO4)c3c2-c2ccccc2)cc1 = 27

Continue with the compound presented below.
### Prompt State the recorded Population Mitochondria Different-Phenotype (%) for this entry: `CC(/C=C1\SC(=S)N(CCCC(=O)Nc2ccc(C(=O)O)c(O)c2)C1=O)=C\c1ccccc1`
### Response 17

* * *

Known Population Normal (%) of a selection of compounds
test system: U2OS; test: Multiplex assay against U2OS; assay type: toxicity, cell-based; settings: human, 24 h, 10 µM, compound concentration 10 uM, replicate 1
Note: unit % is implicit; provide only the numeric part.

# annotated cases, reported Population Normal (%) shown
• CC[C@H](Nc1ncnc2[nH]cnc12)c1nc2cccc(F)c2c(=O)n1-c1ccccc1 = 88
• N#Cc1cccc(C(=O)Nc2cc(-c3ccccc3)nn2-c2ccccc2)c1 = 91
• N#CCNC(=O)c1ccc(-c2ccnc(Nc3ccc(N4CCOCC4)cc3)n2)cc1 = 91
• Oc1cccc(-c2nc(N3CCOCC3)c3oc4ncccc4c3n2)c1 = 89

### Prompt Checklist item: Population Normal (%) tested on U2OS, entry `CC(C)c1cc(Nc2nc(N3CCC[C@H](N)C3)ncc2C(N)=O)cc(C(C)C)n1` , value?
### Response 90

* * *

test system: HEK-293T; experiment: Multiplex assay against HEK293T; assay type: toxicity, cell-based; details: human, 24 h, 10 µM, compound concentration 10 uM, replicate 1
measuredParameter: Population Pyknosed Nuclei (%)
Note: unit % is implicit; provide only the numeric part.

# annotated cases, reported Population Pyknosed Nuclei (%) shown
- Cl.Cn1c2c(c3ccc(Cl)c(Cl)c31)C(C#N)C1(CCNCC1)NC2=O (centres undefined): 47
- NC(=O)c1ccc2nc(-c3ccc(C4(N)CCC4)cc3)c(-c3ccccc3)n2n1: 8
- c1ccc(-c2oc3ncnc(NC[C@@H]4CCCO4)c3c2-c2ccccc2)cc1: 60
- CC(C)C[C@H](NC(=O)[C@H](Cc1ccccc1)NC(=O)CNC(=O)CNC(=O)[C@@H](N)Cc1ccc(O)cc1)C(=O)O: 45
- CC[C@@]1(O)C(=O)OCc2c1cc1n(c2=O)Cc2cc3ccccc3nc2-1: 15

### Prompt Checklist item: Population Pyknosed Nuclei (%) tested on HEK-293T, entry `CCOc1ccn(-c2ccc(F)cc2)c(=O)c1C(=O)Nc1ccc(Oc2ccnc(N)c2Cl)c(F)c1` , value?
### Response 12

### Prompt Checklist item: Population Pyknosed Nuclei (%) tested on HEK-293T, entry `CCCCN(CC)c1nc(C)nc2c1c(C)cn2-c1c(C)cc(C)cc1C.Cl` , value?
### Response 37

### Prompt Checklist item: Population Pyknosed Nuclei (%) tested on HEK-293T, entry `CC(C)c1cc(Nc2nc(N3CCC[C@H](N)C3)ncc2C(N)=O)cc(C(C)C)n1` , value?
### Response 82

### Prompt Checklist item: Population Pyknosed Nuclei (%) tested on HEK-293T, entry `C[C@@H](Oc1cc(-n2cnc3ccc(CN4CCN(C)CC4)cc32)sc1C(N)=O)c1ccccc1C(F)(F)F` , value?
### Response 63

meta.source: ChEMBL document CHEMBL4689842
